Where do the numbers come from? From patent US6828320B2.

# ASSAY_TARGET: c-erbB-4 (baculovirus expressed, recombinant intracellular domain) (Homo sapiens, UniProt Q15303)
# Construct: baculovirus expressed, recombinant constructs of the intracellular domains of c-erbB-2 and c-erbB-4
# Sequence (Q15303 676-1308 limits assumed): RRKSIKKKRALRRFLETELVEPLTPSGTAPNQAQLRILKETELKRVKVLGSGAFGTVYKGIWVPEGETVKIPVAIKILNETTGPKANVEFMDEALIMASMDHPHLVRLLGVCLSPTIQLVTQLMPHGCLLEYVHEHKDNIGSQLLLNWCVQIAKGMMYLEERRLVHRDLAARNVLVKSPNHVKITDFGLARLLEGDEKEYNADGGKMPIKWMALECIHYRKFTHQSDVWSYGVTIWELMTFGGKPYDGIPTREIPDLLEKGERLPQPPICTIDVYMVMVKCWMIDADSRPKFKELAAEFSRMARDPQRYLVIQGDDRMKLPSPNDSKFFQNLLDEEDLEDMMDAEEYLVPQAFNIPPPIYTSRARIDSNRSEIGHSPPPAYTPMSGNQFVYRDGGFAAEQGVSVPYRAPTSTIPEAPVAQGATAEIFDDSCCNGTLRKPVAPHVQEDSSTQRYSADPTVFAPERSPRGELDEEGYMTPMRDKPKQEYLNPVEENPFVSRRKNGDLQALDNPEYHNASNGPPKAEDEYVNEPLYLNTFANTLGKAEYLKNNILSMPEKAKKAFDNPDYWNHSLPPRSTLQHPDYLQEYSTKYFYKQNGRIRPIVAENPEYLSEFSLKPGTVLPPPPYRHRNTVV
# ASSAY_TEXT: Substrate phosphorylation assay, c-erbB-4
Counter-ions that a name gives are not always drawn.
REPORTED_PROPERTY: IC50 (nM)

[P] NC(=O)[C@@H]1CCCN1Cc1ccc(-c2ccc3ncnc(Nc4ccc5c(cnn5Cc5ccccc5)c4)c3c2)o1 [Example 18, dihydrochloride]
[Q] CCN(CCN(C)C)Cc1ccc(-c2ccc3ncnc(Nc4ccc(OCc5ccccc5)cc4)c3c2)o1
Query: Record comparison, field IC50: mark the lower of P and Q . // caller expects the label of the chosen entry
Response: P
(P: 34 nM, Q: 2300 nM)

---

# ASSAY_TARGET: HB4a cell line transformed by over-expression of c-erbB-2 (Homo sapiens)
# ASSAY_TEXT: Cell proliferation assay, HB4a erbB-2
# Format: cell-based
# SETTINGS: 4 days at 37° C., methylene blue staining; read-out: Cell Proliferation HB4a erbB-2
Counter-ions that a name gives are not always drawn.
REPORTED_PROPERTY: GI50 (nM)

Recorded GI50, per entry:
// recorded GI50 for Cc1nc(-c2ccc3ncnc(Nc4ccc(OCc5ccccc5)cc4)c3c2)no1 [Example 56] : 1700

// recorded GI50 for Cc1nnc(-c2ccc3ncnc(Nc4ccc(Oc5ccccc5)cc4)c3c2)o1 [Example 20, hydrochloride] : 6200

[a] Cc1noc(-c2ccc3ncnc(Nc4ccc5c(cnn5Cc5ccccc5)c4)c3c2)n1 [Example 55, hydrochloride]
[b] Cc1nnc(-c2ccc3ncnc(Nc4ccc(OCc5ccccc5)cc4)c3c2)o1 [Example 27, hydrochloride]
Query: Parameter check: reported GI50 is higher for which label, a or b ? // caller expects the label of the chosen entry
Response: b
(b: 6500 nM, a: 2000 nM)

[P] c1ccc(COc2ccc(Nc3ncnc4ccc(-c5ccccn5)cc34)cc2)cc1 [Example 3]
[Q] CN(C)CCc1nc(-c2ccc3ncnc(Nc4ccc(OCc5ccccc5)cc4)c3c2)no1 [Example 57]
[R] O=Cc1ccc(-c2ccc3ncnc(Nc4ccc(OCc5ccccc5)cc4)c3c2)o1 [Example 9]
[S] CNS(=O)(=O)CCNCc1ccc(-c2ccc3ncnc(Nc4ccc(OCc5ccccc5)cc4)c3c2)o1 [Example 54]
Query: Task field, ranking: reported GI50, descending order. Provide the labels, sequenced as the question asks.
Response: P, Q, R, S

---

# ASSAY_TARGET: c-erbB-4 (baculovirus expressed, recombinant intracellular domain) (Homo sapiens)
# Construct: baculovirus expressed, recombinant constructs of the intracellular domains of c-erbB-2 and c-erbB-4
# ASSAY_TEXT: Substrate phosphorylation assay, c-erbB-4
Structures can show the parent of a compound that is named as a salt.
REPORTED_PROPERTY: IC50 (nM)

Recorded IC50, per entry:
The compound `Cn1cncc1-c1ccc2ncnc(Nc3ccc(OCc4ccccc4)cc3)c2c1` , tested on c-erbB-4 (baculovirus expressed, recombinant intracellular domain) (Homo sapiens), showed IC50 of 1000

The compound `c1ccc(COc2ccc(Nc3ncnc4ccc(-c5ccc(CNc6cccnc6)o5)cc34)cc2)cc1` , tested on c-erbB-4 (baculovirus expressed, recombinant intracellular domain) (Homo sapiens), showed IC50 of 1200

The compound `c1ccc(COc2ccc(Nc3ncnc4ccc(-c5ccc(C6OCCO6)o5)cc34)cc2)cc1` , tested on c-erbB-4 (baculovirus expressed, recombinant intracellular domain) (Homo sapiens), showed IC50 of 320

The compound `C1=C(c2ccc3ncnc(Nc4ccc(OCc5ccccc5)cc4)c3c2)OCC1` , tested on c-erbB-4 (baculovirus expressed, recombinant intracellular domain) (Homo sapiens), showed IC50 of 1500

The compound `NC(=O)[C@@H]1CCCN1Cc1ccc(-c2ccc3ncnc(Nc4ccc(OCc5ccccc5)cc4)c3c2)o1` , tested on c-erbB-4 (baculovirus expressed, recombinant intracellular domain) (Homo sapiens), showed IC50 of 660

[A] CNS(=O)(=O)CCNCc1ccc(-c2ccc3ncnc(Nc4ccc(OCc5ccccc5)cc4)c3c2)o1
[B] c1ccc(COc2ccc(Nc3ncnc4ccc(-c5ccc(CNCC6CCCO6)o5)cc34)cc2)cc1 (centres unmarked) [Example 15, hydrochloride]
[C] NS(=O)(=O)CCNCc1ccc(-c2ccc3ncnc(Nc4ccc(OCc5ccccc5)cc4)c3c2)o1
[D] COC(=O)c1ccc(-c2ccc3ncnc(Nc4ccc(OCc5ccccc5)cc4)c3c2)o1
[E] c1ccc(COc2ccc(Nc3ncnc4ccc(-c5cccs5)cc34)cc2)cc1
Query: Task field, ranking: reported IC50, descending order. Provide the labels, sequenced as the question asks.
Response: D, B, E, A, C
(D: 5800 nM, B: 2300 nM, E: 500 nM, A: 280 nM, C: 100 nM)

[A] c1ccc(COc2ccc(Nc3ncnc4ccc(-c5ccco5)cc34)cc2)cc1
[B] CS(=O)(=O)CCNCc1ccc(-c2ccc3ncnc(Nc4ccc5c(cnn5Cc5ccccc5)c4)c3c2)o1 [Example 19, dihydrochloride]
Query: Record comparison, field IC50: mark the lower of A and B . // caller expects the label of the chosen entry
Response: B

---

# ASSAY_TARGET: UniProt P04626
# ASSAY_TEXT: Cell proliferation assay, HB4a erbB-2
# Format: cell-based
# SETTINGS: 4 days at 37° C., methylene blue staining; read-out: Cell Proliferation HB4a erbB-2
Where a name gives a salt, the structure may show the parent alone.
REPORTED_PROPERTY: GI50 (µM)

[a] NC(=O)[C@@H]1CCCN1Cc1ccc(-c2ccc3ncnc(Nc4ccc(OCc5ccccc5)cc4)c3c2)o1 [Example 11]
[b] Cc1nnc(-c2ccc3ncnc(Nc4ccc5c(cnn5Cc5cc(F)cc(F)c5)c4)c3c2)o1 [Example 31, hydrochloride]
Query: Record comparison, field GI50: mark the lower of a and b . // caller expects the label of the chosen entry
Response: a

---

# ASSAY_TARGET: HB4a cell line transformed by over-expression of c-erbB-2 (Homo sapiens, UniProt P04626)
# Sequence (P04626 whole entry, change not shown): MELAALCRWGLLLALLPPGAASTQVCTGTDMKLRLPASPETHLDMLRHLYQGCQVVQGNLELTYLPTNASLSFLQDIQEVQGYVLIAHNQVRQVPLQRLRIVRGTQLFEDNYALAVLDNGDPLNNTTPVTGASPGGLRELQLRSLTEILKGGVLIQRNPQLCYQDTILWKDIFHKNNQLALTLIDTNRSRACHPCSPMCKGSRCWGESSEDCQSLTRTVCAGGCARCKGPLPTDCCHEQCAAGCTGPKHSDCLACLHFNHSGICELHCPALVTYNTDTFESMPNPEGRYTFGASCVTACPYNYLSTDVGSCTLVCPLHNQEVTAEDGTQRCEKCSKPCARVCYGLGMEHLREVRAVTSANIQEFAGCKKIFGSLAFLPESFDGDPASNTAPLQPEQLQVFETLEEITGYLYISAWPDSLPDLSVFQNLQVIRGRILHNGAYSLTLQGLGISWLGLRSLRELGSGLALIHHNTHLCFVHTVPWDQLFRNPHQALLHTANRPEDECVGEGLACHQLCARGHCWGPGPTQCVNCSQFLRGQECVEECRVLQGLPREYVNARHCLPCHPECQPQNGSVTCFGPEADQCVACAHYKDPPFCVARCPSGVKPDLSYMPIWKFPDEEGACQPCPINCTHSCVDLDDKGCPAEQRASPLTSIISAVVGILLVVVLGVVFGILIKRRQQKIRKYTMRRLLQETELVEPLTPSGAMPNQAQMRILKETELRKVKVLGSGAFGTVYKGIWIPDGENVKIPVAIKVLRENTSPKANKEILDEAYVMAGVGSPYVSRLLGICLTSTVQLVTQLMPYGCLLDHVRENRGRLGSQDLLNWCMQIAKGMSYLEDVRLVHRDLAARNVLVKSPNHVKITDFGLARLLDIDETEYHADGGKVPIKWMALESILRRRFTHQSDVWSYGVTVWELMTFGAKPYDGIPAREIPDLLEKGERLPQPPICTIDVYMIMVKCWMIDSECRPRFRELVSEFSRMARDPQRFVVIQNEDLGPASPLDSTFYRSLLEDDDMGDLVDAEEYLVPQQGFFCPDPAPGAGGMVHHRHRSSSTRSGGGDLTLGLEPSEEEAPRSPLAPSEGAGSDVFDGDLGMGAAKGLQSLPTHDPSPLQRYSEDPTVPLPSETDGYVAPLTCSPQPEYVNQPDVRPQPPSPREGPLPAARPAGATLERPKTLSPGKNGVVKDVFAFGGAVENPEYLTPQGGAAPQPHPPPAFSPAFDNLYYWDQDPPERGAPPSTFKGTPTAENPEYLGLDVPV
# ASSAY_TEXT: Cell proliferation assay, HB4a erbB-2
# Type: cell-based
# SETTINGS: 4 days at 37° C., methylene blue staining; read-out: Cell Proliferation HB4a erbB-2
Structures can show the parent of a compound that is named as a salt.
REPORTED_PROPERTY: GI50 (µM)

// recorded GI50 for `Cc1nnc(-c2ccc3ncnc(Nc4ccc5c(cnn5Cc5ccccc5)c4)c3c2)[nH]1` : 0.57

// recorded GI50 for Cc1nnc(-c2ccc3ncnc(Nc4ccc5c(cnn5Cc5ccccc5)c4)c3c2)o1 [Example 41, hydrochloride] : 0.61

// recorded GI50 for Cc1nnc(-c2ccc3ncnc(Nc4ccc(OCc5cccc(F)c5)cc4)c3c2)o1 [Example 29, hydrochloride] : 2.5
